- SYSTEM NAME: H11 (Influenza A virus)
- TEST: FACS, HA on mammalian cells; 2nd only 8.1
RECORDED ENDPOINT: % cells binding to HA (%)
Give the quantity in %, number only.

Record excerpt, results attached:
>>> measured_value("FHF11v9 (antibody, V domains shown) VH: QVQLQQSGPGLVKPSQTLSVTCGISGDSVSSYSAAWNWIRQSPSRGLEWLGRTYYRSGWYNDYAVSVKSRITINPDTSKNQFSLQLISVTPEDTAVYYCARVGAMTFGLLTGGMDVWGQGTTVTVSS VL: EIVLTQSPGTQSLSPGERATLSCRASQSLSRSYLAWYQQRPGKPPRLLIYGASSRATGIPDRFSGSGSGTDFSLTISSLEPEDSAMYFCQYYGDSPLFSFGPGTKVDIK")
59
>>> measured_value("FHF11v3 (antibody, V domains shown) VH: QVQLQQSGPGLVKPSQTLSVTCGISGDSVSSYSAAWNWIRQSPSRGLEWLGRTYYRSKWYNDYAVSVKSRITINPDTSKNQFSLQLISVTPEDTAVYYCARVGAMTFGLLTGGMDVWGQGTTVTVSS VL: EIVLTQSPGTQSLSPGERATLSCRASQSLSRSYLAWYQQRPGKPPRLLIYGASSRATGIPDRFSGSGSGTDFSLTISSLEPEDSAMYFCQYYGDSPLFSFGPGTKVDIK")
59
>>> measured_value("FHF11 (antibody, V domains shown) VH: QVQLQQSGPGLVKPSQTLSVTCGISGDSVSSHSAAWNWIRQSPSRGLEWLGRTYYRSKWYNDYAVSVKSRITINPDTSKNQFSLQLISVTPEDTAVYYCARVGAMTFGLLTGGMDVWGQGTTVTVSS VL: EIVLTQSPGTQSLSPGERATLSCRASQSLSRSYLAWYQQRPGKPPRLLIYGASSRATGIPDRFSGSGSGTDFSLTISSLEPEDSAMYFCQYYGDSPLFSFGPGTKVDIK")
62

Turning now to a further record.
For the binder FHF11v6 (antibody, V domains shown) VH: QVQLQQSGPGLVKPSQTLSVTCGISGDSVSSHSAAWNWIRQSPSRGLEWLGRTYYRSGWYNDYAVSVKSRITINPDTSKNQFSLQLISVTPEDTAVYYCARVGAMTFGLLTGGMDVWGQGTTVTVSS VL: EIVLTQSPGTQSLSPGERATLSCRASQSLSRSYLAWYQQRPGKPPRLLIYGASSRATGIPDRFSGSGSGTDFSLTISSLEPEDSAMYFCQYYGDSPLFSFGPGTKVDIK , what % cells binding to HA is on record?
59

Cited source: patent US20240317841A1
